# Test system: CP247
# Assay overview: qHTS profiling for inhibitors of Plasmodium falciparum proliferation (AID 504749); note: nearly all actives have a fitted effect of over 60% in size; note: potency is the fitted concentration of half-maximal effect
# Applied conditions: P. falciparum in erythrocytes, SYBR Green DNA, 72 h; series mostly up to 28.7 µM
Inconclusive results are not listed. The source made the active and inactive calls. Calls come from the whole dose curve; as a rule, active = well fitted inhibition curve with a large enough effect; inconclusive = small, poorly fitted or top-dose-only effect; inactive = flat fitted curve, though single readings scatter.
Readout label: Potency

The cases that follow already have their Potency on record.
Molecule	Potency
CC(=O)[C@H]1CC[C@H]2C3CC[C@H]4C[C@H](O)CC[C@]4(C)C3CC[C@]12C (some centres undefined)	inactive
CC(C)=CC1C(C(=O)OCc2coc(Cc3ccccc3)c2)C1(C)C (centres undefined)	inactive
CN(C)[C@H]1C(=O)C(C(N)=O)=C(O)[C@]2(O)C(=O)C3=C(O)c4c(O)cccc4[C@@](C)(O)[C@H]3C[C@@H]12	inactive
Cc1cc(C)cc(C(=O)OC2CC3CCC(C2)N3C)c1 (centres undefined)	inactive
C=C1CC2C(CC[C@]3(C)C(=O)CCC23)[C@]2(C)C=CC(=O)C=C12 (some centres undefined)	inactive

Query: State the recorded Potency for this entry: CC(Cc1ccccc1)N(C)C (centres undefined)
Reply: inactive

Query: State the recorded Potency for this entry: C[C@]12CCC3C(CCC4=C(Cl)C(=O)CC[C@@]43C)C1CCC2O (some centres undefined)
Reply: inactive

Query: State the recorded Potency for this entry: C[C@@H]1CC[C@H]2[C@@H](C)C(=O)O[C@@H]3OC4(C)CC[C@@H]1C32OO4 (some centres undefined)
Reply: 10 nM (active)

Query: State the recorded Potency for this entry: CCCN1CCCC2Cc3nc(N)ncc3CC21 (centres undefined)
Reply: inactive

Query: State the recorded Potency for this entry: CCC/C=C/C=C/C(=O)OC1/C(=C/C(=O)OC)CC2CC(C(C)O)OC(=O)CC(O)CC3CC(OC(C)=O)C(C)(C)C(O)(CC4C/C(=C/C(=O)OC)CC(/C=C\C(C)(C)C1(O)O2)O4)O3 (centres undefined)
Reply: 2820 nM (active)

Query: State the recorded Potency for this entry: O=[N+]([O-])OC1CO[C@H]2C(O[N+](=O)[O-])COC12 (some centres undefined)
Reply: inactive

---

# Measured on: Peroxisome proliferator-activated receptor alpha (Homo sapiens) (UniProt Q07869)
# Sequence (Q07869 whole entry, looked up): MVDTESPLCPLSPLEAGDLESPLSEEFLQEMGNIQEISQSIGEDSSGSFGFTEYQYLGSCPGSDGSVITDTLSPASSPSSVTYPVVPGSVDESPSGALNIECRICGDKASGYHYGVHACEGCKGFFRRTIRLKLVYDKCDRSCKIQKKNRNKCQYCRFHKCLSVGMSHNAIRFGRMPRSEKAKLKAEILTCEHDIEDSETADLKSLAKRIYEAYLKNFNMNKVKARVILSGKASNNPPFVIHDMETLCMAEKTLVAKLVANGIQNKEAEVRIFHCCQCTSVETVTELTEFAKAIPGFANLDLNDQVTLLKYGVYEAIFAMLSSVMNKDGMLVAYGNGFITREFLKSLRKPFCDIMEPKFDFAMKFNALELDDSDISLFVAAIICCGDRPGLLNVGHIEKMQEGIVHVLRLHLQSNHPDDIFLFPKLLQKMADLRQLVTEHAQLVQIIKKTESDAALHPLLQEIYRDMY
# Assay overview: qHTS assay for small molecule agonists of the peroxisome proliferator-activated receptor alpha (PPARalpha) signaling pathway (AID 651778); note: % of control where 0% means no effect
# Applied conditions: PathHunter PPARalpha complementation, chemiluminescence, 6 h; hits give high values
Overview of reported max response across a group of compounds:
Quick reminder: number only, in %, skip the unit.

Compound	Measured on	max response [%]
CC1(C)CCC(Cc2ccc(Cl)cc2)C1(O)Cn1cncn1 (stereo not given)	Peroxisome proliferator-activated receptor alpha (Homo sapiens) (UniProt Q07869)	-1.67
CC(=O)[O-].CC(=O)[O-].O.O.[Cd+2]	Peroxisome proliferator-activated receptor alpha (Homo sapiens) (UniProt Q07869)	-7.81
CC(O)CN(CC(C)O)CC(C)O (stereo not given)	Peroxisome proliferator-activated receptor alpha (Homo sapiens) (UniProt Q07869)	-2.83

Query: State the recorded max response for this entry: `COCC(=O)N(c1c(C)cccc1C)[C@H](C)C(=O)OC`
Reply: -0.29

Query: State the recorded max response for this entry: `CC(C)(C#N)N=NC(C)(C)C#N`
Reply: -0.208

Query: State the recorded max response for this entry: `CCC[CH2][Sn]([CH2]CCC)([CH2]CCC)[O]C(=O)c1ccccc1`
Reply: -0.767

Query: State the recorded max response for this entry: `CO/N=C(/C1=NOCCO1)c1ccccc1Oc1ncnc(Oc2ccccc2Cl)c1F`
Reply: 18.3

Query: State the recorded max response for this entry: CCOP(N)(=O)Oc1ccc(SC)c(C)c1 (stereo not given)
Reply: -3.39

Query: State the recorded max response for this entry: `CNC(=O)O/N=C/C(C)(C)S(C)(=O)=O`
Reply: -0.004

Query: State the recorded max response for this entry: `O=[N+]([O-])c1cc(C(F)(F)F)c(Cl)c([N+](=O)[O-])c1Nc1ncc(C(F)(F)F)cc1Cl`
Reply: -9.03

Query: State the recorded max response for this entry: `Fc1ccc(Oc2ccnc3cc(Cl)cc(Cl)c23)cc1`
Reply: 3.62

Query: State the recorded max response for this entry: `CC1(C)CON(Cc2ccccc2Cl)C1=O`
Reply: 0.0347

Query: State the recorded max response for this entry: `CNC(=O)Oc1cccc(N=CN(C)C)c1`
Reply: 2.04

Query: State the recorded max response for this entry: `N#CN=C1SCCN1Cc1ccc(Cl)nc1`
Reply: -1.13

Query: State the recorded max response for this entry: `CN(C)c1nc(=O)n(C2CCCCC2)c(=O)n1C`
Reply: 0.605

Query: State the recorded max response for this entry: `CC1(C)[C@H](C(=O)O[C@H](C#N)c2cccc(Oc3ccccc3)c2)[C@@H]1/C=C(\Cl)C(F)(F)F`
Reply: -0.66

Query: State the recorded max response for this entry: `CC(C)Oc1cc(-n2nc(C(C)(C)C)oc2=O)c(Cl)cc1Cl`
Reply: 0.863

Query: State the recorded max response for this entry: `CCCCOC(=O)c1ccccc1C(=O)O`
Reply: 0.528

Query: State the recorded max response for this entry: `CCNC(=O)NC(=O)/C(C#N)=N/OC`
Reply: 0.388
